experiment: Stability of substrates and metabolites in quality control samples (benchtop, autosampler, freeze-thaw); type: physicochemical; details: QC conc. 150 ng/ml; room temperature for 19 hours
observed_property: Benchtop stability (19 h) Ac. Accuracy (%)

- compound: "COc1ccc2nc([S+]([O-])Cc3ncc(CO)c(OC)c3C)[nH]c2c1 (stereo not drawn)"
  measured_result: "92,79%"
- compound: "O=C1Nc2ccc(Cl)cc2[C@@](C#CC2CC2)(C(F)(F)F)O1 [efavirenz, reference compound]"
  measured_result: "111,5%"
- compound: "COCC(O)c1ccc(OCC(O)CNC(C)C)cc1 (stereo not drawn)"
  measured_result: "88,26%"
- compound: "O=C1Nc2c(O)cc(Cl)cc2[C@@](C#CC2CC2)(C(F)(F)F)O1"
  measured_result: "74,14%"
- compound: "COCCc1ccc(OCC(O)CNC(C)C)cc1 (stereo not drawn) [metoprolol, reference compound]"
  measured_result: "102,76%"

In the following, a different compound is considered.
Entry COc1ccc2[nH]c([S+]([O-])Cc3ncc(C)c(OC)c3C)nc2c1 (stereo not drawn) [omeprazol, omeprazole, reference compound] has what Benchtop stability (19 h) Ac. Accuracy (%)?
104,38%
